- Species on record: Homo sapiens
- EXPERIMENT_DESCRIPTION: Compound was evaluated for production of leukotriene B4 in human whole blood (HWB) activated with ionophore A-23187.
- Assay type: functional
pIC50: −log10 of the molar value.
yes (1) means recorded pIC50 is 7 or above; no (0) means it is below 7.

compound=N#Cc1cc(-c2ccoc2)c2ccc(OCc3cccc(C4(O)CCOCC4)n3)cc2c1 classification="yes (1)"
compound=N#Cc1cc(-c2ccoc2)c2ccc(OCc3csc(C4(O)CCOCC4)n3)cc2c1 classification="no (0)"
compound="CC(c1cc2ccccc2s1)N(O)C(N)=O (stereo not drawn) [ZILEUTON]" classification="no (0)"
compound="N#Cc1cc(-c2ccoc2)c2ccc(OCc3cccc(C4(O)CC5COC(C4)O5)n3)cc2c1 (stereo not drawn)" classification="yes (1)"
compound=N#Cc1cc(-c2ccoc2)c2ccc(OCc3ccnc(C4(O)CCOCC4)c3)cc2c1 classification="no (0)"
compound=N#Cc1cc(-c2ccoc2)c2ccc(OCc3cc(C4(O)CCOCC4)ccn3)cc2c1 classification="yes (1)"

---

- TEST_TARGET: Polyunsaturated fatty acid 5-lipoxygenase (Homo sapiens)
- EXPERIMENT_DESCRIPTION: Compound was evaluated for the potency to inhibit oxidation of arachidonic acid by human recombinant 5-Lipoxygenase using a spectrophotometric assay
- Format: functional
IC50: recorded values
OBSERVATION_TYPE: IC50 (nM)

smi=N#Cc1cc(-c2ccoc2)c2ccc(OCc3cccc(C4(O)CCOCC4)n3)cc2c1 test_target="Polyunsaturated fatty acid 5-lipoxygenase (Homo sapiens)" obs_value=15
smi=N#Cc1cc(-c2ccoc2)c2ccc(OCc3ccnc(C4(O)CCOCC4)c3)cc2c1 test_target="Polyunsaturated fatty acid 5-lipoxygenase (Homo sapiens)" obs_value=350

---

Catalogue of IC50 readings, one per entry.
- TEST_TARGET: Polyunsaturated fatty acid 5-lipoxygenase (Homo sapiens, UniProt P09917)
- Sequence (P09917 whole entry): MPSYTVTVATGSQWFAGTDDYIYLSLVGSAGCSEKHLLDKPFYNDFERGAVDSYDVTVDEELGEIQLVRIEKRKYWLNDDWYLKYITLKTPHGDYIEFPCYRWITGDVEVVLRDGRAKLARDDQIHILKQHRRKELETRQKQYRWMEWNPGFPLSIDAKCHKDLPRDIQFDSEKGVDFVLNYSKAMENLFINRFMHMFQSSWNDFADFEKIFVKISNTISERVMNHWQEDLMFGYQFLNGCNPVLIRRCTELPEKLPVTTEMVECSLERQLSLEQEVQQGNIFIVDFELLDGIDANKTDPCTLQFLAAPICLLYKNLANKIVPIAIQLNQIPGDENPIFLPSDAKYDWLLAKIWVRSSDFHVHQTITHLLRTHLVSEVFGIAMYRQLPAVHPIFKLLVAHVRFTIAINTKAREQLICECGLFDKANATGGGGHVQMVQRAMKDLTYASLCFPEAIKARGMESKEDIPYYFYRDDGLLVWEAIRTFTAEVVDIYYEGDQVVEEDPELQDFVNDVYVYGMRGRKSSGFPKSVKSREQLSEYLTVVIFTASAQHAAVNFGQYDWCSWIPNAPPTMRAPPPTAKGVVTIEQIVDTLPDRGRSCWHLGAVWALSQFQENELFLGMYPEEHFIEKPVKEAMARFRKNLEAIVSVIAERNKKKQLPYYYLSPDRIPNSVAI
- EXPERIMENT_DESCRIPTION: Inhibition of oxidation of arachidonic acid by human 5-Lipoxygenase using spectrophotometric assay
- Format: functional
OBSERVATION_TYPE: IC50

compound="N#Cc1cc(-c2ccoc2)c2ccc(COc3cccc(C4(O)CC5COC(C4)O5)n3)cc2c1 (stereo unspecified)" test_target="Polyunsaturated fatty acid 5-lipoxygenase (Homo sapiens, UniProt P09917)" observation_type=IC50 obs_value="80 nM"
compound=N#Cc1cc(-c2ccoc2)c2ccc(OCc3cncc(C4(O)CCOCC4)c3)cc2c1 test_target="Polyunsaturated fatty acid 5-lipoxygenase (Homo sapiens, UniProt P09917)" observation_type=IC50 obs_value="100 nM"
compound=N#Cc1cc(-c2ccoc2)c2ccc(OCc3csc(C4(O)CCOCC4)n3)cc2c1 test_target="Polyunsaturated fatty acid 5-lipoxygenase (Homo sapiens, UniProt P09917)" observation_type=IC50 obs_value="160 nM"
compound="N#Cc1cc(-c2ccoc2)c2ccc(OCc3cccc(C4(O)CC5COC(C4)O5)n3)cc2c1 (stereo unspecified)" test_target="Polyunsaturated fatty acid 5-lipoxygenase (Homo sapiens, UniProt P09917)" observation_type=IC50 obs_value="20 nM"
compound=N#Cc1cc(-c2ccoc2)c2ccc(OCc3ccc4ccc(C5(O)CCOCC5)cc4n3)cc2c1 test_target="Polyunsaturated fatty acid 5-lipoxygenase (Homo sapiens, UniProt P09917)" observation_type=IC50 obs_value="1000 nM"
compound=N#Cc1cc(-c2ccoc2)c2ccc(OCc3cc(C4(O)CCOCC4)ccn3)cc2c1 test_target="Polyunsaturated fatty acid 5-lipoxygenase (Homo sapiens, UniProt P09917)" observation_type=IC50 obs_value="70 nM"

Cited source for all entries: ChEMBL document CHEMBL1130137
